Assay: qHTS assay for identifying genotoxic compounds that show differential cytotoxicity against isogenic chicken DT40 cell lines with known DNA damage response pathways - Rev3 mutant cell line (AID 743014); note: nearly all actives have a fitted effect of over 55% in size
Condition set: chicken DT40 Rev3-/- viability, CellTiter-Glo, 40 h; series mostly up to 68.4 µM
Records with an inconclusive call do not appear. Active and inactive are the calls of the source. Calls come from the whole dose curve; as a rule, active = well fitted cell-killing curve with a large enough effect in the repeat runs; inconclusive = weak or mixed curves, or effect the other way; inactive = no such curve, though single readings can be large or run the other way.
Tick one outcome: active, inactive

As a guide, the following entries are already answered.
[
  {
    "Molecule": "Cc1onc(-c2ccccc2)c1C(=O)N[C@@H]1C(=O)N2[C@@H]1SC(C)(C)[C@@H]2C(=O)O",
    "Label value": "inactive"
  },
  {
    "Molecule": "C[C@H]1[C@@H](OC(=O)CCC(=O)O)O[C@@H]2OC3(C)CC[C@H]4[C@H](C)CC[C@@H]1[C@@]24OO3",
    "Label value": "active"
  },
  {
    "Molecule": "C[C@]12CC[C@@H]3c4ccc(OS(=O)(=O)O)cc4CC[C@H]3[C@@H]1CCC2=O",
    "Label value": "inactive"
  },
  {
    "Molecule": "CC(=O)Nc1c(I)c(C(=O)N[C@H]2C(O)O[C@H](CO)[C@@H](O)[C@@H]2O)c(I)c(N(C)C(C)=O)c1I (stereo partly specified)",
    "Label value": "inactive"
  },
  {
    "Molecule": "CN1CCN2c3ncccc3Cc3ccccc3C2C1 (stereo unspecified)",
    "Label value": "inactive"
  },
  {
    "Molecule": "CC(C(=O)O)c1ccc(C2CCCCC2)c2ccccc12 (stereo unspecified)",
    "Label value": "inactive"
  },
  {
    "Molecule": "C=C1CC[C@@H]2[C@](C)(CO)[C@H](O)CC[C@@]2(C)[C@@H]1C/C=C1/C(=O)OC[C@H]1O",
    "Label value": "active"
  },
  {
    "Molecule": "CC(=O)c1ccc2c(c1)N(CCCN1CCN(CCO)CC1)c1ccccc1S2",
    "Label value": "active"
  }
]

For this molecule, state the assay outcome: COc1ccc(C2NC(=S)N3C(c4ccc(OC)c(OC)c4)NC(=S)N23)cc1OC (stereo unspecified) active

// return assay outcome for N[C@@H](C(=O)N[C@@H]1C(=O)N2C(C(=O)O)=C(CSc3cn[nH]n3)CS[C@H]12)c1ccc(O)cc1 inactive

For this molecule, state the assay outcome: COc1cc(C[C@@H]2NCCc3cc(O)c(O)cc32)cc(OC)c1OC inactive

Origin of the recorded values: PubChem BioAssay (Tox21)
